Target: T1, dADAR-dsRBD1 (UniProt Q9NII1 48-140)
T1 sequence: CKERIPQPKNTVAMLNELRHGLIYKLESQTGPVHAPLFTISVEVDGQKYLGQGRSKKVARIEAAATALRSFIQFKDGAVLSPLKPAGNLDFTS
Experiment: ITC
endpoint.name: pKd
pKd (log units): -log10 of the concentration in mol/L.

Query string: Please report pKd for the following binder: miR-16-1-B (dsRNA) RNA 1: UAGCAGCACGUAAAUAUUGGCG RNA 2: CCAGUAUUUACUGUGCUGCUGAA
Result string: 6.57
